System: oxotremorine syndrome in the mouse
Settings: in vivo, po, 100 mg/kg
measurementName: Anticholinergic activ. (antagonism against oxotremorine syndrome)

Illustrative cases are given below, each with its answer.
> print(dat)
                                   compound       val
1  CC(C)NC(=S)N1CCc2nc(NC(=N)N)sc2C1 [Example 15]  Inactive
2  CNC(=C[N+](=O)[O-])NCCSCc1ccc(CN(C)C)o1 [Ranitidine, reference compound]  Inactive
3  CC(C)NC(=O)N1CCc2nc(NC(=N)N)sc2C1 [Example 16]  Inactive
4  N=C(N)Nc1nc2c(s1)CN(C(=O)NC1CC1)CC2 [Example 22]  Inactive

Challenge: What value of Anticholinergic activ. (antagonism against oxotremorine syndrome) has been reported for the following compound? CNC(=O)N1CCc2nc(N)sc2C1 [Example 5]
Response given: Inactive

Challenge: What value of Anticholinergic activ. (antagonism against oxotremorine syndrome) has been reported for the following compound? CC(C)NC(=S)N1CCc2nc(N)sc2C1 [Example 2]
Response given: Inactive

----------
Below is a list of entries, each paired with its recorded ED50 value.
Test system: basal gastric secretion output HCl
Assay: gastric anti-secretory activity in rats, pylorus ligature technique
Assay type: in vivo, rat (Sprague-Dawley male)
Settings: Column 4, rat, intraduodenal (i.d.), 4 hours, read-out: Antisecretory activ.: inhibition of basal gastric secretion output HCl (ED50)

Challenge: What value of ED50 has been reported for the following molecule? CNC(=C[N+](=O)[O-])NCCSCc1ccc(CN(C)C)o1 [Ranitidine, reference compound]
Response given: 7 mg/kg

----------
System: gastric ulcers induced in rats by stress
Assay: inhibition of stress ulcers in rats (restraint in water at 23° C. for 4 hours)
Type: in vivo, rat (Charles River male)
Conditions: po, rat, p.o. one hour before stress, number of ulcers
measurementName: ED50 (mg/kg)
Just the number please, in mg/kg, no unit attached.

> print(dat)
                                  compound  measurementname  val
1  CC(C)NC(=S)N1CCc2nc(N)sc2C1 [Example 2]             ED50  2.7

Challenge: What value of ED50 has been reported for the following compound? CC(C)NC(=O)N1CCc2nc(NC(=N)N)sc2C1 [Example 16]
Response given: 2.9

Challenge: What value of ED50 has been reported for the following compound? CNC(=C[N+](=O)[O-])NCCSCc1ccc(CN(C)C)o1 [Ranitidine, reference compound]
Response given: 6.2

Challenge: What value of ED50 has been reported for the following compound? N=C(N)Nc1nc2c(s1)CN(C(=O)NC1CC1)CC2 [Example 22]
Response given: 20.2

----------
Below is a list of entries, each paired with its recorded LD50 at 168 h value.
Assay: approximate acute toxicity (LD50) in the rat, single oral administration
Settings: in vivo

Illustrative cases are given below, each with its answer.
> print(dat)
                              compound          val
1    CC(C)NC(=O)N1CCc2nc(NC(=N)N)sc2C1  > 800 mg/kg
2  N=C(N)Nc1nc2c(s1)CN(C(=O)NC1CC1)CC2  > 800 mg/kg

Then this compound:
Challenge: What value of LD50 at 168 h has been reported for the following compound? CNC(=C[N+](=O)[O-])NCCSCc1ccc(CN(C)C)o1 [Ranitidine, reference compound]
Response given: > 800 mg/kg

----------
Tested on: basal gastric secretion output HCl
Test: gastric anti-secretory activity in rats, pylorus ligature technique
Format: in vivo, rat (Sprague-Dawley male)
Settings: Column 4, rat, intraduodenal (i.d.), 4 hours, read-out: Antisecretory activ.: inhibition of basal gastric secretion output HCl (ED50)
Below is a list of entries, each paired with its recorded ED50 value.
Just the number please, in mg/kg, no unit attached.

> print(dat)
                           smilesstr  measurementname   val
1        CC(C)NC(=S)N1CCc2nc(N)sc2C1             ED50     1
2  CC(C)NC(=O)N1CCc2nc(NC(=N)N)sc2C1             ED50  0.33

Then this molecule:
Challenge: Provide the documented ED50 with basal gastric secretion output HCl as the system for N=C(N)Nc1nc2c(s1)CN(C(=O)NC1CC1)CC2
Response given: 1.7
